- method notes: LCL viability reduction – cell-based, plate reader, cherry-picks, set 2, cytotoxicity control, dose response (AID 504882)
- protocol conditions: EBV lymphoblastoid cells (LCL) viability; series mostly up to 19.5 µM
About 290 (24%) of roughly 1,200 compounds were called active. Another 9% or so got no clear call; they are omitted. The list is a sample of the results. Entries with a potency or affinity are not part of this list.
recorded endpoint: outcome

// worked examples, outcome included
molecule: O=C(CN1C(=O)C2C3C=CC(C3)C2C1=O)NCCC1=CCCCC1 (stereo unspecified)
outcome: inactive

molecule: NC1=NC(=O)NC1(c1ccccc1)c1ccccc1
outcome: inactive

molecule: COc1cccc(/C=N/Nc2ncnc(N)c2[N+](=O)[O-])c1OC
outcome: inactive

molecule: COc1cccc(C(=O)O/N=C(\N)c2ccccn2)c1OC
outcome: inactive

molecule: CNC(=O)C1=NCCCc2cc(OC)c(OC)cc21
outcome: inactive

molecule: COc1ccc(CN2C(=O)c3cccnc3C2Nc2cc(Cl)ccc2OC)cc1 (stereo unspecified)
outcome: inactive

molecule: COC(=O)c1[nH]c2cccc(C)c2c1NC(=O)CN1CCCc2ccccc21
outcome: inactive

molecule: Cn1c(-c2ccccc2)cnc1SCC(=O)N1CCCCC1
outcome: inactive

## Task For the molecule shown here, CC(C)CC1C(=O)N(Cc2cn(CC3CCCCC3)nn2)CCS(=O)(=O)N1Cc1ccc(-c2ccc(F)nc2)cc1 (stereo unspecified) , give the reported outcome.
## Result inactive

## Task Entry N#CC1=C(N)OC2=C(C(=O)CCC2)C12C(=O)N1CCCc3cccc2c31 (stereo unspecified) please
## Result inactive

## Task # iterate: COc1ccc(-c2oc3ncnc(NCCN4CCOCC4)c3c2-c2ccc(OC)cc2)cc1
## Result inactive

Entry source: PubChem BioAssay AID504882
